test system: JAK1-dependent STAT6 phosphorylation downstream of IL-13 stimulation in TF-1 human erythroleukemia cells; assay: JAK1 pathway assay in TF-1 cells (IL-13-pSTAT6, MSD); format: cell-based; conditions: Homo sapiens, TF-1, TF-1 cells, read-out: IL13-pSTAT6 EC50_TF-1
pEC50: −log10 of the molar value.
Value kind: pEC50

Example entries begin here.
{"Molecule": "CN(C)C1CCN(c2nc(-c3cc(Cl)ccc3OC(F)F)c(NC(=O)c3cnn4cccnc34)s2)CC1 [Example 188]", "Reported measurement": 8.24}
{"Molecule": "N=C(N)CCCn1cc(NC(=O)c2cnn3cccnc23)c(-c2cc(Cl)ccc2OC(F)F)n1 [Example 305]", "Reported measurement": 7.96}
{"Molecule": "CN(C)C1CCN(C(=O)Cn2cc(NC(=O)c3cnn4cccnc34)c(-c3cc(Cl)ccc3OC(F)F)n2)C1 (stereo not shown) [Example 65]", "Reported measurement": 8.03}

[1] CN1CCCN(C(=O)Cn2cc(NC(=O)c3cnn4cccnc34)c(-c3cc(Cl)ccc3OC(F)F)n2)CC1 [Example 239]
[2] O=C(Nc1cn(C2CCN(CCCN3CCSCC3)CC2)nc1-c1cc(Cl)ccc1OC(F)F)c1cnn2cccnc12 [Example 159]
[3] CN(C)C1CCN(C(=O)Cn2cc(NC(=O)c3c(N)nn4cccnc34)c(-c3cc(Cl)ccc3OC(F)F)n2)C1 (stereo not shown) [Example 136]
[4] CN(CCc1ccccc1)C1CCN(c2nc(-c3cc(Cl)ccc3OC(F)F)c(NC(=O)c3cnn4cccnc34)s2)CC1 [Example 192]
Sort low-to-high on pEC50, please. Give your ranking as a list of the labels in the requested order. 4, 2, 3, 1
(4: 6.56, 2: 7.24, 3: 7.44, 1: 8.07)

====

target: isolated recombinant JAK2 kinase domain (Homo sapiens (Human)); test: JAK2 enzyme assay (Caliper LabChip, peptide phosphorylation); details: 25 μM ATP
Sequence (O60674 849-1124): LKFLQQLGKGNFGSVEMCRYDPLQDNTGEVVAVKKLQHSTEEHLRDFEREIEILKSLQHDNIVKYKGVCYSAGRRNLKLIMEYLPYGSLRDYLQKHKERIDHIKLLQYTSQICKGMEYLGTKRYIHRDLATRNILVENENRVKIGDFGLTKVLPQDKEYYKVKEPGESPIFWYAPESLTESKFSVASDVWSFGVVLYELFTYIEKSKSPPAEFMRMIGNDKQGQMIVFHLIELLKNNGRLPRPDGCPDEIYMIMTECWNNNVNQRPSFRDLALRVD
pKi: −log10 of the molar value.
Value kind: pKi

[1] CS(=O)(=O)N1CCC(CN2C[C@@H]3CN(C(=O)Cn4cc(NC(=O)c5cnn6cccnc56)c(-c5cc(Cl)ccc5OC(F)F)n4)C[C@@H]3C2)CC1
[2] O=C1CC(N2CCN(C(=O)Cn3cc(NC(=O)c4cnn5cccnc45)c(-c4cc(Cl)ccc4OC(F)F)n3)CC2)CO1 (centres unmarked)
Could you please tell me which of these two has the higher pKi: 1 or 2 ? Write down the label attached to your selection. 1

====

molecular target: isolated recombinant JAK1 kinase domain (Homo sapiens (Human)); assay: JAK1 enzyme assay (Caliper LabChip, peptide phosphorylation); assay type: biochemical; details: isolated recombinant JAK1 kinase domain, 25 μM ATP
Value kind: Ki (nM)

{"Compound": "CN(C)CC1CCN(c2nc(-c3cc(Cl)ccc3OC(F)F)c(NC(=O)c3cnn4cccnc34)s2)CC1 [Example 190]", "System tested": "isolated recombinant JAK1 kinase domain (Homo sapiens (Human))", "Ki, nM": 2.69}
{"Compound": "CN1C[C@@H]2CN(C(=O)Cn3cc(NC(=O)c4cnn5cccnc45)c(-c4cc(Cl)ccc4OC(F)F)n3)C[C@]2(c2ccccc2)C1 [Example 44]", "System tested": "isolated recombinant JAK1 kinase domain (Homo sapiens (Human))", "Ki, nM": 0.54}
{"Compound": "Cc1ccc(OCCN(C)C2CCN(C(=O)Cn3cc(NC(=O)c4cnn5cccnc45)c(-c4cc(Cl)ccc4OC(F)F)n3)CC2)cc1 [Example 110]", "System tested": "isolated recombinant JAK1 kinase domain (Homo sapiens (Human))", "Ki, nM": 1.04}
{"Compound": "O=C(Nc1cn(CC(=O)N2CC[C@H]3CNC[C@H]3C2)nc1-c1cc(Cl)ccc1OC(F)F)c1cnn2cccnc12 [Example 21]", "System tested": "isolated recombinant JAK1 kinase domain (Homo sapiens (Human))", "Ki, nM": 0.47}
{"Compound": "COCCN1CCN(C(=O)Cn2cc(NC(=O)c3c(N)nn4cccnc34)c(-c3cc(Cl)ccc3OC(F)F)n2)CC1 [Example 245]", "System tested": "isolated recombinant JAK1 kinase domain (Homo sapiens (Human))", "Ki, nM": 0.35}

[P] O=C(O)CNC1CCN(CCn2cc(NC(=O)c3cnn4cccnc34)c(-c3cc(Cl)ccc3OC(F)F)n2)CC1 [Example 311]
[Q] O=C(Nc1cn(Cc2cn(C3CCNCC3)nn2)nc1-c1cc(Cl)ccc1OC(F)F)c1cnn2cccnc12 [Example 452]
Of P and Q , which carries the smaller reported Ki figure? Write down the label attached to your selection. Q
(Q: 0.71 nM, P: 1.25 nM)

====

target: isolated recombinant JAK1 kinase domain (Homo sapiens (Human), UniProt P23458); assay: JAK1 enzyme assay (Caliper LabChip, peptide phosphorylation); type: biochemical; conditions: isolated recombinant JAK1 kinase domain, 25 μM ATP
Sequence (P23458 875-1153): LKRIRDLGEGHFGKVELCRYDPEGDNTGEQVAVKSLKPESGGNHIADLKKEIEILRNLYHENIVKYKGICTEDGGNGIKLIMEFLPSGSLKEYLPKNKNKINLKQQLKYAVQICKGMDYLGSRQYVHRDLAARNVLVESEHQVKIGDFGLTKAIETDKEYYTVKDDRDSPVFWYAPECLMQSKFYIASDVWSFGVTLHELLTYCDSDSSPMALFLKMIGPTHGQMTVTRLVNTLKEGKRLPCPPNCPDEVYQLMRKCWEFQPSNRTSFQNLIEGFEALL
pKi: −log10 of the molar value.
Value kind: pKi

{"Molecule": "O=C(Nc1cn(CC(=O)N2C[C@H]3CN(CC4CCN(C(=O)OCc5ccccc5)CC4)C[C@H]3C2)nc1-c1cc(Cl)ccc1OC(F)F)c1cnn2cccnc12", "Reported measurement": 9.15}
{"Molecule": "Nc1nn2cccnc2c1C(=O)Nc1cn(CC(=O)N2CCNCC2)nc1-c1cc(Cl)ccc1OC(F)F", "Reported measurement": 9.14}
{"Molecule": "COCCN(C)C1CCN(C(=O)Cn2cc(NC(=O)c3cnn4cccnc34)c(-c3cc(Cl)ccc3OC(F)F)n2)CC1", "Reported measurement": 9.13}
{"Molecule": "CN1CC[C@@H]2[C@@H](CCN2C(=O)Cn2cc(NC(=O)c3cnn4cccnc34)c(-c3cc(Cl)ccc3OC(F)F)n2)C1 [Example 45]", "Reported measurement": 9.13}

[P] CN1CCC2(CCN(C(=O)Cn3cc(NC(=O)c4cnn5cccnc45)c(-c4cc(Cl)ccc4OC(F)F)n3)C2)C1 (stereo not drawn)
[Q] CN1CCC2CN(C(=O)Cn3cc(NC(=O)c4cnn5cccnc45)c(-c4cc(Cl)ccc4OC(F)F)n3)CC21 (stereo not drawn)
Could you please tell me which of these two has the higher pKi: P or Q ? Write down the label attached to your selection. Q
(Q: 9.29, P: 9.04)

====

system: JAK1-dependent STAT6 phosphorylation downstream of IL-13 stimulation in BEAS-2B human bronchial epithelial cells; assay: JAK1 pathway assay in BEAS-2B cells (IL-13-pSTAT6, MSD); assay type: cell-based; settings: read-out: IL13-pSTAT6 EC50 (uM)_BEAS-2B
Counter-ions that a name gives are not always drawn.
Item-by-item account of EC50
Respond with the bare value in µM.

Please give measured EC50 of the following entry: CCOC(=O)C1(C)CCN(CCN2CCN(C(=O)Cn3cc(NC(=O)c4cnn5cccnc45)c(-c4cc(Cl)ccc4OC(F)F)n3)CC2)CC1 [Example 337, formate] 0.0232

Please give measured EC50 of the following entry: CN(C)C(=O)CNC1CCN(C(=O)Cn2cc(NC(=O)c3cnn4cccnc34)c(-c3cc(Cl)ccc3OC(F)F)n2)CC1 0.152

Please give measured EC50 of the following entry: O=C(Nc1cn(CC(=O)N2CCC(N3C[C@@H]4C[C@H]3CO4)CC2)nc1-c1cc(Cl)ccc1OC(F)F)c1cnn2cccnc12 0.0161

Please give measured EC50 of the following entry: CCN(Cc1ccnc(C)c1)C(=O)Cn1cc(NC(=O)c2cnn3cccnc23)c(-c2cc(Cl)ccc2OC(F)F)n1 0.0104

Please give measured EC50 of the following entry: CN1CCC2CN(C(=O)Cn3cc(NC(=O)c4cnn5cccnc45)c(-c4cc(Cl)ccc4OC(F)F)n3)CC21 (stereo not shown) 0.0058

Please give measured EC50 of the following entry: C[C@@H](NCCn1cc(NC(=O)c2cnn3cccnc23)c(-c2cc(Cl)ccc2OC(F)F)n1)c1ccccc1 0.139

Please give measured EC50 of the following entry: CN1CCN(C/C=C/Cn2cc(NC(=O)c3cnn4cccnc34)c(-c3cc(Cl)ccc3OC(F)F)n2)CC1 0.0224

====

system: JAK1-dependent STAT6 phosphorylation downstream of IL-13 stimulation in TF-1 human erythroleukemia cells; assay: JAK1 pathway assay in TF-1 cells (IL-13-pSTAT6, MSD); assay type: cell-based; conditions: Homo sapiens, TF-1, TF-1 cells, read-out: IL13-pSTAT6 EC50_TF-1
pEC50: −log10 of the molar value.
Value kind: pEC50

{"Molecule": "CN1CCN(c2ccc(-c3nc(-c4cc(Cl)ccc4OC(F)F)c(NC(=O)c4cnn5cccnc45)s3)cc2)CC1 [Example 258]", "Reported measurement": 7.15}

[P] CN(CCOc1ccccc1)C1CCN(C(=O)Cn2cc(NC(=O)c3cnn4cccnc34)c(-c3cc(Cl)ccc3OC(F)F)n2)CC1 [Example 100]
[Q] CN1CCC2(C1)CN(C(=O)Cn1cc(NC(=O)c3cnn4cccnc34)c(-c3cc(Cl)ccc3OC(F)F)n1)C2 [Example 211]
[R] O=C(Nc1cn(CC(=O)N2C[C@H]3CN(CCOCc4ccc(Cl)cc4)C[C@H]3C2)nc1-c1cc(Cl)ccc1OC(F)F)c1cnn2cccnc12 [Example 60]
Order the 3 molecules from highest to lowest pEC50. Give your ranking as a list of the labels in the requested order. P, Q, R
(P: 8.27, Q: 7.68, R: 7.34)

[I] Cc1ccc(OCCN(C)C2CCN(C(=O)Cn3cc(NC(=O)c4cnn5cccnc45)c(-c4cc(Cl)ccc4OC(F)F)n3)CC2)cc1 [Example 110]
[II] CCN(Cc1cccnc1)C(=O)Cn1cc(NC(=O)c2cnn3cccnc23)c(-c2cc(Cl)ccc2OC(F)F)n1 [Example 301]
[III] O=C(Nc1sc(N2CC(N3CCCCC3)C2)nc1-c1cc(Cl)ccc1OC(F)F)c1cnn2cccnc12 [Example 195]
Sort low-to-high on pEC50, please. Give your ranking as a list of the labels in the requested order. III, I, II
(III: 7.78, I: 8.05, II: 8.47)
